- assayProtocol: Pharmacokinetic measurements of H3B-6527 capsules in patients (trial NCT02834780), plasma LC-MS/MS
- Format: in vivo, human
- testParameters: 500 mg BID, fasted, Day 8; Table 5, nominal times

# smilesNotation, unitDescriptor, AUC, geometric mean (CV%)
records = [
    ("C=CC(=O)Nc1cc(N2CCN(CC)CC2)ccc1Nc1cc(N(C)C(=O)Nc2c(Cl)c(OC)cc(OC)c2Cl)ncn1", "ng·h/mL", 1200),
]

###

- assayProtocol: Pharmacokinetic measurements of H3B-6527 capsules in patients (trial NCT02834780), plasma LC-MS/MS
- Format: in vivo, human
- testParameters: 1400 mg QD, fasted, Day 8; Table 5, nominal times
observationType: AUC, geometric mean (CV%)

# compound, observationType, recordedResult
rows = [
    ("C=CC(=O)Nc1cc(N2CCN(CC)CC2)ccc1Nc1cc(N(C)C(=O)Nc2c(Cl)c(OC)cc(OC)c2Cl)ncn1 [H3B-6527]", "AUC, geometric mean (CV%)", "1450 ng·h/mL"),
]
